Tested on: UACC-62 melanoma
Protocol: NCI-60 one-dose screen, 48 h
Conditions used: 10 µM unless noted
This is part of a sample that, as a whole, favours compounds with a hit. Of some 83,000 tested, about 20% had one in any assay. Active and inactive are the calls of the source. The calls were made as follows: active = growth percent below 10; inactive = the rest.
Would you mind answering with one of these outcomes? active, inactive

                                   compound  category_label
0    CN1C(=O)/C(=C\c2c(Cl)cccc2Cl)c2ccccc21        inactive
1  OCCn1cc(-c2nc(-c3c[nH]c4ncccc34)cs2)c2cc(F)ccc21        inactive
2   COc1ccc(/C=C(\C#N)n2nnc3cc(Cl)ccc32)cc1          active
3  O=C(c1nn(-c2ccccc2)c2c1CC(NCc1ccc(F)cc1)CC2)N1CCCCC1 (stereo not given)        inactive

Which outcome did this test record for the compound C#COc1cccc(Nc2c(C#N)cnc3ncc(NC(=O)CCl)cc23)c1 ?
inactive

Which outcome did this test record for the compound COc1ccc(-c2ccc(-c3ccc(C(=N)N)cc3)s2)cc1Cl ?
inactive

Which outcome did this test record for the compound O=C(Nc1ccc(Oc2cccc(Cl)c2)c(Cl)c1)c1cccnc1 ?
inactive

Which outcome did this test record for the compound COc1ccc2c(c1)c(-c1nc(-c3c[nH]c4ccncc34)cs1)cn2C ?
active

Which outcome did this test record for the compound Cn1cc(C(=O)c2nc(-c3c[nH]c4ccccc34)no2)c2cc(F)ccc21 ?
inactive

Which outcome did this test record for the compound Cc1ccc(-c2nc([P+](c3ccccc3)(c3ccccc3)c3ccccc3)c(S(=O)(=O)c3ccc(C)cc3)o2)cc1 ?
inactive

====

Tested on: KM12 colon
Protocol: NCI-60 one-dose screen, 48 h (100 = growth as untreated, 0 = no growth, -100 = all killed)
Conditions used: 10 µM unless noted
Description: Growth inhibition of the KM12 human tumor cell line is measured as a screen for anti-cancer activity. Cells are grown in 96 well plates and exposed to the test compound for 48 hours. Compounds are tested at a single concentration, which is 10^-5 M for most compounds. The reported endpoint is percent growth (GI% or GIPRCNT), where numbers from 0 - 100% represent growth inhibition, and numbers from -100% - 0 represent cell death. For example, a value of 40 represents 60% growth inhibition. […]
This is part of a sample that, as a whole, favours compounds with a hit. Of some 83,000 tested, about 20% had one in any assay.
Give measured growth for each item. Keep answers brief.
One number for each entry, in %.

Here are 3 molecules together with their reported answers.
                                smiles_text  readout_value
0  C[C@@H](CO)[C@@H]1CCC=C2CC[C@]3(C)[C@H](CC[C@@H]4[C@@]5(C)CCCNC(C)(C)[C@@H]5CC[C@]43C)[C@H]21           4.99
1  Cc1cn(-c2cc(NC(=O)c3cccc(C#Cc4cccc5[nH]nc(N)c45)c3)cc(C(F)(F)F)c2)cn1           20.6
2  O=C1c2c(c3c4ccccc4[nH]c3c3ccc4ccccc4c23)C(=O)N1CCN1CCOCC1           36.4

In the following, a different molecule is considered.
Recall the reported growth of Cc1[nH]c(C(=O)Nc2ccccc2OC2CCNCC2)c(Cl)c1Cl when tested on KM12 colon.
32.8

====

Tested on: OVCAR-8 ovarian
Protocol: NCI-60 one-dose screen, 48 h (100 = growth as untreated, 0 = no growth, -100 = all killed)
Conditions used: 10 µM unless noted
This is part of a sample that, as a whole, favours compounds with a hit. Of some 83,000 tested, about 20% had one in any assay.
API: label(entry) gives true if the entry's growth is strictly smaller than 60%; on equality or larger values it gives false.

Worked examples, 5 molecules total:
In [3]: df
Out[3]:
                                   molecule  category_label
0  CC(O)(c1ccccc1)C(c1ccccc1)C1CCCCN1 (centres undefined)           false
1  CC(=O)N1N=C(c2ccc(C(F)(F)F)c(F)c2)CC1c1[nH]c(C)c(C(=O)NCC(F)(F)F)c1C (centres undefined)            true
2  CCOC(=O)c1cc(C(=O)c2cc(OC)c(OC)c(OC)c2)n2ncccc12            true
3  Fc1cc2c(cc1Cl)N(c1ncnc3ccc(-c4ccc5n[nH]nc5c4)cc13)CC2           false
4  CCCCCC(/C=N\NC(=S)N/N=C/C(=C/c1ccccc1)CCCCC)=C\c1ccccc1           false

State whether 60% exceeds growth recorded for N#Cc1nc(-c2ccc(Cl)cc2)oc1S(=O)(=O)N1CCN(c2ccc(F)cc2)CC1 .
false

State whether 60% exceeds growth recorded for CCSC(SCC)c1ccc(Cl)cc1 .
false

State whether 60% exceeds growth recorded for CC1=C2[C@@H](CC1)[C@]1(C)O[C@@](C(C)C)(C[C@H]1OC(=O)[C@H](C)O)[C@H]2OC(=O)/C=C/c1ccccc1 .
true

====

System: HOP-92 NSCLC
Protocol: NCI-60 one-dose screen, 48 h (100 = growth as untreated, 0 = no growth, -100 = all killed)
Conditions used: 10 µM unless noted
Compounds without any hit were thinned out: in the full panel of roughly 83,000, 20% have a hit.
Measure name: growth (%)
Numbers only, in %.

Here are 3 compounds together with their reported answers.
In [3]: df
Out[3]:
                                   compound  subject_of_test  measure_name  readout_value
0  Nc1c(C(=O)Nc2ccncc2)sc2nc3c(cc12)C(O)CCC3 (stereo unspecified)     HOP-92 NSCLC        growth           88.2
1                     C/C(=N\O)c1ccc(Cl)cc1     HOP-92 NSCLC        growth           65.3
2  CC/C(=C(/c1ccc(Cl)cc1)c1ccc(OCCN2CCCCC2)cc1)c1ccc(OC)cc1     HOP-92 NSCLC        growth             57

Look at each compound and report its growth.
1. Clc1ccc(/C=N\N=C\c2ccc(Cl)c(Cl)c2)cc1Cl
2. COc1ccc(OC)c(Nc2nnc(-c3ccc(O)c(OC)c3)o2)c1
3. Cn1ccnc1C(=O)/C=C/c1ccc(CC(=O)Nc2cc(C(F)(F)F)cc(C(F)(F)F)c2)cc1

[88.6, 85.1, 87]

====

System: EKVX NSCLC
Protocol: NCI-60 one-dose screen, 48 h (100 = growth as untreated, 0 = no growth, -100 = all killed)
Conditions used: 10 µM unless noted
The panel holds about 83,000 compounds, 20% with a hit somewhere; the sample as a whole holds those more often.
API: label(entry) gives 1 if the entry's growth is strictly smaller than 80%; on equality or larger values it gives -1.

                                smiles_text  subject_of_test  category_label
0  COc1ccc(Nc2ncc(Br)c(NCCCNC(=O)c3cccs3)n2)cc1       EKVX NSCLC               1
1       O=C1/C(=C/c2ccccc2Br)COc2ccc(O)cc21       EKVX NSCLC              -1
2  COc1ccc2cc1Oc1ccc(cc1)C[C@H]1c3c(cc4c(c3Oc3cc5c(cc3OC)CCN(C)[C@@H]5C2)OCO4)CCN1C       EKVX NSCLC               1
3  CCOC(=O)c1c2c(n3cccc(F)c13)C(=O)c1ncccc1C2=O       EKVX NSCLC               1
4    CN1C(=O)/C(=C\c2c(Cl)cccc2Cl)c2ccccc21       EKVX NSCLC              -1
5  Cc1cc(N2CCN(CC(=O)Nc3ccc4c(ccn4C)c3)CC2)nc(N2CCCCCC2)n1       EKVX NSCLC              -1
6  COc1ccc(C(=O)c2cc3c(N)c(C(=O)Nc4ccc(C)cc4)sc3nc2C)cc1       EKVX NSCLC               1
7  Nc1nc2ccc(-c3nc4ccc5[nH]ncc5c4c4c3CCCC4)cc2s1       EKVX NSCLC              -1

State whether 80% exceeds growth recorded for Fc1ccc(CNc2c3ccccc3nc3ccccc23)c(F)c1 .
1

State whether 80% exceeds growth recorded for CCc1ccc(CCCC(=O)O)cc1 .
-1

====

System: COLO 205 colon
Protocol: NCI-60 one-dose screen, 48 h
Conditions used: 10 µM unless noted
Compounds without any hit were thinned out: in the full panel of roughly 83,000, 20% have a hit. The source made the active and inactive calls. How the source made its calls: active means growth percent below 10; inactive means the rest.
Would you mind answering with one of these outcomes? active, inactive

Worked examples, 8 molecules total:
                                   molecule  category_label
0  CCCNC(=O)Nc1ccc2cc3ccc(NC(=O)NCCC)cc3nc2c1        inactive
1  COc1ccc(C2CC(c3ccc(Nc4nc(Nc5ccccc5)nc(Nc5ccccc5)n4)cc3)=NN2C(C)=O)cc1 (centres undefined)        inactive
2  CC(=O)O[C@@H]1C[C@]2(C(C)C)O[C@@]1(C)[C@@H]1CCC(C)=C1[C@@H]2OC(=O)/C=C/c1ccccc1        inactive
3  N#Cc1c(-c2ccccc2)cc(-c2ccc(Nc3nc(Nc4ccc(Cl)cc4)nc(Nc4ccc(Cl)cc4)n3)cc2)nc1N          active
4  COc1ccc(-c2ccc(-c3ccc(C(=N)N)cc3)s2)cc1Cl          active
5  CC1CCc2c(C(=O)Nc3ncc(Cc4cccc([N+](=O)[O-])c4)s3)csc2C1 (centres undefined)        inactive
6  Nc1cnc(C(=O)NNc2nc3cc(F)ccc3n3cccc23)cn1          active
7      NC(=O)c1cc(I)ccc1NC(=O)/C=C/c1ccccc1        inactive

Which outcome did this test record for the molecule COc1cc(/C=C/C(=O)c2ccc(F)cc2)ccc1OCCCCOc1ccc(/C=C/C(=O)c2c(C)nc3ccccc3c2C)cc1OC ?
inactive

Which outcome did this test record for the molecule CCOC(=O)c1cc2c(n1C)-c1nc(NC(C)=O)sc1CCC2 ?
inactive

Which outcome did this test record for the molecule Nc1c(C(=O)Nc2ccccc2F)sc2nc3c(cc12)CCCC3 ?
inactive
